- Tested on: Rattus norvegicus
- Procedure summary: Reduction in spontaneous locomotor activity in Sprague-Dawley rat at 33 umol/kg, sc measured after 15 to 60 mins relative to saline-treated control
- Assay type: functional
- Design: scale not given: the % may be the effect or the level left
Metric name: Activity (%)
Could you give me the number in %? Just the number is fine.

{"Molecule": "CCCN1CCC(n2c(=O)[nH]c3cc(Cl)ccc32)CC1", "System": "Rattus norvegicus", "Activity, %": 54}
{"Molecule": "CCCN1CCC(c2c[nH]c3cc(F)ccc23)CC1", "System": "Rattus norvegicus", "Activity, %": 2.8}
{"Molecule": "CCCN1CCC(c2noc3cc(F)ccc23)CC1", "System": "Rattus norvegicus", "Activity, %": 8.3}

Give the measured Activity for CCCN1CCC(c2n[nH]c3ccccc23)CC1
7

Give the measured Activity for CCCN1CCC(c2cn(C)c3ccc(F)cc23)CC1
9

###

IC50 tested on Amine oxidase [flavin-containing] A (Rattus norvegicus, UniProt P21396): recorded values
Sequence (P21396 whole entry): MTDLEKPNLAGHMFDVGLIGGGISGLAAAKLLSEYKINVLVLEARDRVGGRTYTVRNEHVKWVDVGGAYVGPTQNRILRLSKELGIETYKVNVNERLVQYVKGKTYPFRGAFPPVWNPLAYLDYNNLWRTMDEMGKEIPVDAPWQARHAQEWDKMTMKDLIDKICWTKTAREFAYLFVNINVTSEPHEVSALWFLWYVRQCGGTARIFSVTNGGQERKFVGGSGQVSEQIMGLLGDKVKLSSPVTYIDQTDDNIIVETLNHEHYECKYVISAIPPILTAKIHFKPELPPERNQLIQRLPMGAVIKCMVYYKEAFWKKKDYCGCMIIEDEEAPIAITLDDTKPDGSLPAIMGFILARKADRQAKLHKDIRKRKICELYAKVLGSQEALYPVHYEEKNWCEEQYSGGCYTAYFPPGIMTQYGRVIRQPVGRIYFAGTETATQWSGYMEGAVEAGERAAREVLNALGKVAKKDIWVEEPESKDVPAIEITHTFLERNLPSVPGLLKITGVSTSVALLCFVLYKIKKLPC

The cases that follow already have their IC50 on record.
{"Molecule": "CCCN1CCC(n2c(=O)[nH]c3cc(Cl)ccc32)CC1", "Observed": "> 580 µM"}
{"Molecule": "CCCN1CCC(n2c(=O)n(C)c3cc(Cl)ccc32)CC1", "Observed": "> 580 µM"}
{"Molecule": "CCCN1CCC(N2C(=O)C(=O)c3ccccc32)CC1", "Observed": "> 580 µM"}

With those in mind, consider the next molecule.
Give the measured IC50 for CCCN1CCC(n2cnc3ccccc32)CC1
> 580 µM

###

Ki tested on UniProtKB P31645: recorded values
Sequence (P31645 whole entry): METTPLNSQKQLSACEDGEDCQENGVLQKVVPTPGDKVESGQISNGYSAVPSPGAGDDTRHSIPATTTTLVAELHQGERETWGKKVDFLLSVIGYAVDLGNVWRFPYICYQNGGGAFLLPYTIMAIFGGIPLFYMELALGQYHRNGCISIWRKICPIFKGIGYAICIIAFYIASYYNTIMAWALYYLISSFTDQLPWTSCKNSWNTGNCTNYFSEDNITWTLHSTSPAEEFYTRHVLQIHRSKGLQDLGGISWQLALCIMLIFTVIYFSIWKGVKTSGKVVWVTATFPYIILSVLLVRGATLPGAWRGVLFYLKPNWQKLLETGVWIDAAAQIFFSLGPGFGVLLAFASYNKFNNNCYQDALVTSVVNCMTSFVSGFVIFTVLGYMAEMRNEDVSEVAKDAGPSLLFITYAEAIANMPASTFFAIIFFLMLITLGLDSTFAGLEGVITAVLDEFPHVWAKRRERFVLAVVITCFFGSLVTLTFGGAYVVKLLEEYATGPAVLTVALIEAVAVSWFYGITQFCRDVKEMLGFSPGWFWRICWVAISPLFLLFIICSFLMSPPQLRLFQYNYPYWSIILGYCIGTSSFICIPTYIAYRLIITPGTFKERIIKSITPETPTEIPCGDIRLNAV
Could you give me the number in nM? Just the number is fine.

{"Molecule": "CCCN1CCC(n2ccc3ccccc32)CC1", "Metric name": "Ki", "Observed": 54}
{"Molecule": "CCCN1CCC(n2c(=O)n(C)c3cc(Cl)ccc32)CC1", "Metric name": "Ki", "Observed": 2240}
{"Molecule": "CCCN1CCC(c2ccc3ccccc3c2)CC1", "Metric name": "Ki", "Observed": 127}
{"Molecule": "CCCN1CCC(N2C(=O)C(=O)c3ccccc32)CC1", "Metric name": "Ki", "Observed": 23800}
{"Molecule": "CCCN1CCC(n2c(=O)[nH]c3cc(Cl)ccc32)CC1", "Metric name": "Ki", "Observed": 3510}
{"Molecule": "CCCN1CCC(n2cnc3ccccc32)CC1", "Metric name": "Ki", "Observed": 122}
{"Molecule": "CCCN1CCC(c2c[nH]c3cc(F)ccc23)CC1", "Metric name": "Ki", "Observed": 45}
{"Molecule": "CCCN1CCC(c2cn(C)c3cc(F)ccc23)CC1", "Metric name": "Ki", "Observed": 45}

Enter recorded Ki with UniProtKB P31645 for CCCN1CCC(c2cn(C)c3ccc(F)cc23)CC1 here.
58

Enter recorded Ki with UniProtKB P31645 for CCCN1CCC(c2csc3ccccc23)CC1 here.
6.5

Enter recorded Ki with UniProtKB P31645 for CCCN1CCC(c2noc3cc(F)ccc23)CC1 here.
29800

Enter recorded Ki with UniProtKB P31645 for CCCN1CCC(c2cc3ccccc3s2)CC1 here.
130

Enter recorded Ki with UniProtKB P31645 for CCCN1CCC(c2n[nH]c3ccccc23)CC1 here.
5640

Enter recorded Ki with UniProtKB P31645 for CCCN1CCC(c2coc3ccccc23)CC1 here.
827

Enter recorded Ki with UniProtKB P31645 for CCCN1CCC(c2cccc3ccccc23)CC1 here.
52

###

- Species on record: Homo sapiens
- Procedure summary: Selectivity ratio of Ki(app) for human low affinity Dopamine D2S receptor to Ki(app) for human high affinity Dopamine D2S receptor
Friendly reminder: Ratio Ki(app) below 5 is Satisfied, at or above is Not satisfied.

{"Molecule": "CCCN1CCC(n2c(=O)[nH]c3cc(Cl)ccc32)CC1", "Label": "Satisfied"}
{"Molecule": "CCCN1CCC(n2c(=O)n(C)c3cc(Cl)ccc32)CC1", "Label": "Satisfied"}
{"Molecule": "CCCN1CCC(c2noc3cc(F)ccc23)CC1", "Label": "Not satisfied"}
{"Molecule": "CCCN1CCC(c2cc3ccccc3s2)CC1", "Label": "Satisfied"}
{"Molecule": "CCCN1CCC(c2csc3ccccc23)CC1", "Label": "Satisfied"}

# input for lookup
Strictly below 5: is that where Ratio Ki(app) of CCCN1CCC(c2cccc3ccccc23)CC1 sits?
Satisfied

###

- System: Alpha-2A adrenergic receptor (Homo sapiens, UniProt P08913)
- Sequence (P08913 whole entry): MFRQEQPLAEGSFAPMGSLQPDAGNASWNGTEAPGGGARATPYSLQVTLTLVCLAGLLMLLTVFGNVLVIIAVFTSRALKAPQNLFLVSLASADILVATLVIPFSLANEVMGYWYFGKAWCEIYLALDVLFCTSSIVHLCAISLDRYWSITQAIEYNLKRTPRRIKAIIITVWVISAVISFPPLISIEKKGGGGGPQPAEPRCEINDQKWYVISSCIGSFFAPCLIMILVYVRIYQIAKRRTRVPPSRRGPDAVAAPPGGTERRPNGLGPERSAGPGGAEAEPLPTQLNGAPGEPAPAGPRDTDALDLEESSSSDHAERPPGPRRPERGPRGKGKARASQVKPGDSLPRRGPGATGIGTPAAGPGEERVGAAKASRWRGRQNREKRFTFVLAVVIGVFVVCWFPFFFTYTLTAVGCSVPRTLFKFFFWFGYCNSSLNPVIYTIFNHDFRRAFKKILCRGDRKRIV
Metric name: Ki

Give the measured Ki for CCCN1CCC(n2c(=O)[nH]c3cc(Cl)ccc32)CC1
17.2 µM

###

- System: 5-hydroxytryptamine receptor 1A (Homo sapiens) (UniProt P08908)
- Sequence (whole entry): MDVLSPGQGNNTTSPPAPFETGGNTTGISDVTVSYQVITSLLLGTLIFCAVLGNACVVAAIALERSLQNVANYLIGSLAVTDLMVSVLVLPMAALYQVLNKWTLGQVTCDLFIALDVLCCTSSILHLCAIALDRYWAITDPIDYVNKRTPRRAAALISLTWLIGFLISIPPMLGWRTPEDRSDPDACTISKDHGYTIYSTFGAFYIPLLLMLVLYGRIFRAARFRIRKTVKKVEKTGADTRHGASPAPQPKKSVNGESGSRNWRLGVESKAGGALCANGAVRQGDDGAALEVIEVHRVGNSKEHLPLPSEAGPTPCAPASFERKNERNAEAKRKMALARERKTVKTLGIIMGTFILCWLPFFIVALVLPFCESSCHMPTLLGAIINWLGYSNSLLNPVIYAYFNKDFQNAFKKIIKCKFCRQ
- Procedure summary: Displacement of [3H]8- OH-DPAT from human 5-HT1A at 1 uM by CEREP assay
Metric name: inhibition (%)
Could you give me the number in %? Just the number is fine.

The cases that follow already have their inhibition on record.
{"Molecule": "CCCN1CCC(c2coc3ccccc23)CC1", "System": "5-hydroxytryptamine receptor 1A (Homo sapiens) (UniProt P08908)", "Scale unit": "%", "inhibition": 49}
{"Molecule": "CCCN1CCC(c2cc3ccccc3s2)CC1", "System": "5-hydroxytryptamine receptor 1A (Homo sapiens) (UniProt P08908)", "Scale unit": "%", "inhibition": 23}
{"Molecule": "CCCN1CCC(c2noc3cc(F)ccc23)CC1", "System": "5-hydroxytryptamine receptor 1A (Homo sapiens) (UniProt P08908)", "Scale unit": "%", "inhibition": 17}
{"Molecule": "CCCN1CCC(c2ccc3ccccc3c2)CC1", "System": "5-hydroxytryptamine receptor 1A (Homo sapiens) (UniProt P08908)", "Scale unit": "%", "inhibition": 41}

With those in mind, consider the next compound.
Give the measured inhibition for CCCN1CCC(c2c[nH]c3cc(F)ccc23)CC1
14

###

- System: D(3) dopamine receptor (Homo sapiens, UniProt P35462)
- Sequence (P35462 whole entry): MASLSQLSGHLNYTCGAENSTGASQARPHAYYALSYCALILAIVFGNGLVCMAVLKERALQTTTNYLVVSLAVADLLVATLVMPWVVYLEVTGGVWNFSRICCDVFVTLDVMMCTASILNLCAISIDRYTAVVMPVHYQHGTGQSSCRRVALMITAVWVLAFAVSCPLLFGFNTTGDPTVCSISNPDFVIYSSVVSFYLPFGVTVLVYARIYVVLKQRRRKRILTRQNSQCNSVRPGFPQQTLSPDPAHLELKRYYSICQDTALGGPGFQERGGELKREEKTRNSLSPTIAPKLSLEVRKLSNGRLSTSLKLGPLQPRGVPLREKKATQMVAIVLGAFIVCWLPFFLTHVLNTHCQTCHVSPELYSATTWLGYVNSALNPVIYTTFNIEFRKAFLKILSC
Metric name: Ki (nM)
Could you give me the number in nM? Just the number is fine.

Enter recorded Ki with D(3) dopamine receptor (Homo sapiens, UniProt P35462) for CCCN1CCC(n2c(=O)[nH]c3cc(Cl)ccc32)CC1 here.
2520

###

- System: D(2) dopamine receptor (Homo sapiens)
- Sequence (P14416 whole entry): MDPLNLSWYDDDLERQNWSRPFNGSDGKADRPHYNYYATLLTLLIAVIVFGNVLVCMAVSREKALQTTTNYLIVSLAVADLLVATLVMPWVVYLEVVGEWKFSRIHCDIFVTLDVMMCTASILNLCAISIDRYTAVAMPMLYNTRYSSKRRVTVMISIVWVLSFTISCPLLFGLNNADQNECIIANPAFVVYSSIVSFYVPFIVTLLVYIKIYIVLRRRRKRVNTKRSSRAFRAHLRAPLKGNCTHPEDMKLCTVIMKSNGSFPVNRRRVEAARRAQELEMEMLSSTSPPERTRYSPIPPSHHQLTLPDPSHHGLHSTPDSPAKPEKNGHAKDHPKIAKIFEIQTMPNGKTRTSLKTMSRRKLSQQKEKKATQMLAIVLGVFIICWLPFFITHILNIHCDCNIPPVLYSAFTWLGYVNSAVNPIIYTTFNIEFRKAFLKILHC
- Procedure summary: Displacement of [3H]7-OH-DPAT from human high affinity Dopamine D2S receptor by competition binding assay
Measured log10(Ki) accompanies every entry in the list below.
The base-10 logarithm of Ki, taken with Ki in nM, is what appears here.

The cases that follow already have their log10(Ki) on record.
{"Molecule": "CCCN1CCC(c2cc3ccccc3s2)CC1", "System": "D(2) dopamine receptor (Homo sapiens)", "log10(Ki)": 2.76}
{"Molecule": "CCCN1CCC(c2csc3ccccc23)CC1", "System": "D(2) dopamine receptor (Homo sapiens)", "log10(Ki)": 1.41}
{"Molecule": "CCCN1CCC(c2cccc3ccccc23)CC1", "System": "D(2) dopamine receptor (Homo sapiens)", "log10(Ki)": 1.61}
{"Molecule": "CCCN1CCC(c2ccc3ccccc3c2)CC1", "System": "D(2) dopamine receptor (Homo sapiens)", "log10(Ki)": 3.19}
{"Molecule": "CCCN1CCC(N2C(=O)C(=O)c3ccccc32)CC1", "System": "D(2) dopamine receptor (Homo sapiens)", "log10(Ki)": 4.11}
{"Molecule": "CCCN1CCC(c2noc3cc(F)ccc23)CC1", "System": "D(2) dopamine receptor (Homo sapiens)", "log10(Ki)": 1.53}

With those in mind, consider the next compound.
Give the measured log10(Ki) for CCCN1CCC(c2n[nH]c3ccccc23)CC1
2.27
